- subject of test: UniProtKB P07711
- Sequence (P07711 114-333, species assumed): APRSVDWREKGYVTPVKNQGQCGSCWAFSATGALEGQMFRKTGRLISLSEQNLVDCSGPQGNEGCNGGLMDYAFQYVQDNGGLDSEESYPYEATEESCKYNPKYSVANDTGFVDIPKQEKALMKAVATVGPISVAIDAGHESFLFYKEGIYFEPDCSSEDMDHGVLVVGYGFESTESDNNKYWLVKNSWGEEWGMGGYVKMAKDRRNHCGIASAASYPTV
Residues, ends and D or L forms follow the SMILES beside them. *: point of attachment. Boc = CC(C)(C)OC(=O)*
value type: IC50 (nM)
Output spec: scalar in nM, unitless text.

Exercise: Entry under review: CC(C)C[C@H](NC(=O)OC(C)(C)C)C(=O)N[C@H](C=O)C(C)C [10b′] (Boc-Leu-Val-aldehyde) . Reported IC50?
Solution: 230

----------
For each record, write down the corresponding IC50.
- assay notes: Cytotoxic activity on human cell lines
- Type: cell-based
- study conditions: PC3 prostatic carcinoma cells, mean value of three replicates
Output spec: scalar in µM, unitless text.

Exercise: Entry under review: CC(=O)O[C@@]12CO[C@@H]1C[C@H](O)[C@@]1(C)C(=O)[C@H](O)C3=C(C)[C@@H](OC(=O)[C@H](O)[C@@H](NC(=O)OC(C)(C)C)c4ccccc4)C[C@@](O)([C@@H](OC(=O)c4ccccc4)[C@H]21)C3(C)C [Docetaxel, reference compound] . Reported IC50?
Solution: 71.9

Exercise: Entry under review: `CC[C@H](C)c1[nH]c(=O)c(CC(C)C)nc1C` . Reported IC50?
Solution: 432

Exercise: Entry under review: `Cc1nc(CC(C)C)c(=O)[nH]c1C(C)C` . Reported IC50?
Solution: 796

This collection of values is drawn from paper PMC10979478.
